Tested on: HEK-293T
Protocol description: Multiplex assay against HEK293T
Format: toxicity, cell-based
Assay setup: human, 24 h, 10 µM, compound concentration 10 uM, replicate 2
Result type: Population Pyknosed Nuclei (%)
Dear colleague, please return just the value in %, with no unit written.

See these solved cases before continuing.
O=C(O)c1cc2ccccc2c(Cc2c(O)c(C(=O)O)cc3ccccc23)c1O [PAMOIC ACID] : 15
CCNC1(C(N)=O)CCN(c2ncnc3c2nc(-c2ccccc2Cl)n3-c2ccc(Cl)cc2)CC1 [OTENABANT] : 15
O=C(NCC(=O)N1CC[C@H](N[C@H]2CC[C@@](O)(c3ccc(-c4ncccn4)cn3)CC2)C1)c1cccc(C(F)(F)F)c1 [PF-4136309] : 11

Attention now turns to another entry.
q: # input compound: CNC[C@H](O)c1ccc(O)c(O)c1 [EPINEPHRINE] ; wanted: its Population Pyknosed Nuclei (%)
a: 17
